readout-type: melting point

Solved entries:
Given the entry CC(C)CC(NC(=O)OC(C)(C)C)C(O)c1ccccn1 (stereo not given) , report its measured melting point.
83 to 84 °C

Given the entry N[C@@H](CO)[C@@H](O)[C@H](O)[C@H](O)CO , report its measured melting point.
129 to 130 °C

Each compound below has a recorded value; state its melting point.
1. CCC(=O)c1cc(C(=O)C(=O)c2cccc(OC)c2)cn1CC
2. O=C(O)C=Cc1ccc(CCNC(=O)c2ccc(Cl)cc2)cc1
3. COc1ccc(-c2c(Cl)c(CNC(=O)Cn3cncn3)nc3sc4c(c23)CCN(Cc2ccccc2)C4)cc1OC
4. CCCc1nc(C)cc(=O)n1CCOc1ccc(C=C2SC(=O)NC2=O)cc1
5. CC1(C)CC(=O)c2c(-c3ccccc3)sc(-c3nccs3)c2C1
6. CN(Cc1ccc(COc2cccc3c2CN(C2CCC(=O)NC2=O)C3=O)cc1)c1ccccc1 (stereo not given)
7. COc1cc2cc(-c3cccnc3)cnc2cc1OC
8. O=[N+]([O-])c1ccc(SSc2ncccn2)c(C(Cl)(Cl)Cl)c1

1: 97 °C; 2: 253 to 255 °C; 3: 101 to 102 °C; 4: 240 to 242 °C; 5: 141 to 143 °C; 6: 201 to 203 °C; 7: 131 to 132 °C; 8: 98 to 99 °C

meta.source: a melting point compilation (Tetko et al.; mined from patent text by program, amines drawn as free bases though some values may be those of a salt)
